ASSAYED_TARGET: human serum albumin (HSA) (Homo sapiens, UniProt P02768)
Sequence (P02768 25-609): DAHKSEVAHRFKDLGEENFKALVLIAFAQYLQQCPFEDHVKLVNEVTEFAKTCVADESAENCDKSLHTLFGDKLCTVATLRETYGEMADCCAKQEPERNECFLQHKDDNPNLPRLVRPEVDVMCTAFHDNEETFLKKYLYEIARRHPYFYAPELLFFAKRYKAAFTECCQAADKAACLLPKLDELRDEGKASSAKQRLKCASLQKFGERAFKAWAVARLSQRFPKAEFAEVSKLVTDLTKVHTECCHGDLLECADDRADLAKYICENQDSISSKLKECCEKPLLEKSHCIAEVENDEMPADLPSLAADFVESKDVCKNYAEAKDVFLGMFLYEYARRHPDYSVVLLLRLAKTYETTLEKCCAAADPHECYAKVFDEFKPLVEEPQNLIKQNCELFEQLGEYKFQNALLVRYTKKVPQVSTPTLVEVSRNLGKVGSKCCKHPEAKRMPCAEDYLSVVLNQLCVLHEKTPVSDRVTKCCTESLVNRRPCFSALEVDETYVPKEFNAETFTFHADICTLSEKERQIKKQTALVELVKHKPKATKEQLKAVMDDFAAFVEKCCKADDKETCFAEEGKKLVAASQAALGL
EXPERIMENTAL_READOUT: Kd (nM)
Report only the number, with the unit nM understood.

# input Given Cc1cc(-c2ccc(NC(=O)[C@H](CCCCNC(=O)CCN3C(=O)CC(SCCC(=O)N[C@H](Cc4ccccc4)C(=O)N[C@H]4CSSC[C@@H](C(=O)N[C@H](C(=O)O)[C@@H](C)O)NC(=O)[C@H]([C@@H](C)O)NC(=O)[C@H](CCCCN)NC(=O)[C@@H](Cc5c[nH]c6ccccc56)NC(=O)[C@H](Cc5ccc(O)cc5)NC4=O)C3=O)NC(=O)CN3CCN(CC(=O)O)CCN(CC(=O)O)CCN(CC(=O)O)CC3)c(C)c2)ccc1/N=N/c1ccc2c(S(=O)(=O)O)cc(S(=O)(=O)O)c(N)c2c1O (stereo partly shown) [[64Cu]Cu-DOTA-EB-TATE, metal not drawn] , state its recorded Kd.
# output 1200

====

EXPERIMENT_DESCRIPTION: Small-animal PET imaging in subcutaneous MPC tumor allograft model
CONDITION_LABEL: female, NMRI-nu/nu (Rj:NMRI-Foxn1nu/nu), mouse, tumor, iv, total radioactivity
EXPERIMENTAL_READOUT: SUV at 2 h (SUV)
Report only the number, with the unit SUV understood.

# input Given C[C@@H](O)[C@H](NC(=O)[C@@H]1CSSC[C@H](NC(=O)[C@@H](Cc2ccccc2)NC(=O)COCCOCCNC(=O)[C@H](Cc2cn(-c3ccc(C(=O)N[C@@H](CCCCNC(=O)CCCc4ccc(F)cc4)C(N)=O)cc3)nn2)NC(=O)CC[C@H](C(=O)O)N2CCN(CC(=O)O)CCN(CC(=O)O)CC2)C(=O)N[C@@H](Cc2ccc(O)cc2)C(=O)N[C@H](Cc2c[nH]c3ccccc23)C(=O)N[C@@H](CCCCN)C(=O)N[C@@H]([C@@H](C)O)C(=O)N1)C(=O)O [[64Cu]Cu-NODAGA-cLAB5-TATE, metal not drawn] , state its recorded SUV at 2 h.
# output 7.9
